Recorded solubility thermodynamic for the following molecules
Test: physchem
Details: pH 7.4 buffer
Measured endpoint: solubility thermodynamic (µM)

1. CC(=O)N1CCN(c2ccc(Nc3nccc(-c4cnc5ccccn45)n3)cc2)CC1	8.5
2. COc1cc2c(Nc3ccc(Cl)cc3F)ncnc2cc1OC/C=C/CN1CCCC1	759
3. COc1ccc(Cn2c(CCc3c[nH]c4ccccc34)nnc2[C@@H](Cc2c[nH]c3ccccc23)NC(=O)C(C)(C)N)cc1	182
4. Cc1ccccc1C[C@@H](C(=O)O)N1CCC(CN2CCC(Oc3ccc(Cl)c(Cl)c3)CC2)CC1	12.3
5. CN1CCN(CC(=O)Nc2ccc(-c3cccn4c(=O)cc(N5CCOCC5)nc34)c3sc4ccccc4c23)CC1	5.4
6. CN(C)C(=N)c1ccc(C(=O)N2CCN(S(=O)(=O)c3ccc4cc(Br)ccc4c3)CC2)cc1	1320
7. O=C(Nc1ccc(N2CCOCC2)c(F)c1)c1nnc(Nc2ccccc2F)o1	1.3
8. CC(C)(C)CNCCn1c(Sc2nc3cccc(Cl)c3s2)nc2c(N)ncnc21	0.5
9. CN(C(=O)c1ccco1)c1nnc(C23CC4CC(CC(C4)C2)C3)s1	3

---

Recorded log10 solubility thermodynamic for the following compounds
Assay: physchem
Settings: pH 7.4 buffer
Measured endpoint: log10 solubility thermodynamic (log10 of the value in µM)

1) N#Cc1ccc2[nH]c(-c3ccc(F)cc3)c(CCCC(=O)NS(=O)(=O)C(F)(F)F)c2c1	2.49
2) COc1cc(N2CCN(C(=O)[C@H](C)O)CC2)ccc1Nc1ncc(Cl)c(-c2cnc3ccccn23)n1	0.18
3) O=C(c1ccc(F)cc1)C1CCN(C(=O)c2ccc(F)cc2)CC1	1.49
4) CNCc1ccc(-c2[nH]c3cc(F)cc4c3c2CCNC4=O)cc1	2.93
5) CCOCc1nc2c(N)nc3ccccc3c2n1CC(C)(C)O	2.62
6) CCCSc1nc(N2CCC(C(=O)O)CC2)ccc1C(=O)NC1CCCCC1	2.49
7) NC(=O)c1ccn2c(-c3ccccc3)c(-c3ccc(C4(N)CCC4)cc3)nc2c1	2.05
8) CN(C(=O)Cc1ccc(Br)cc1)C1CCN(CCC(c2ccccc2)c2ccccc2)CC1	1.34
9) O=C1NC(=O)C(c2ccccc2)(c2ccccc2)N1	1.90
10) COc1cc2ncnc(Nc3cccc(Cl)c3F)c2cc1CN1CCC[C@@H]1C(N)=O	2.29
11) CNC(=O)[C@@H](NC(=O)[C@H](CC(C)C)[C@H](OCc1cccc2cccnc12)C(=O)NO)C(C)(C)C	3.00
12) CN(C)CCOc1ccc(-c2oc3ncnc(NC[C@@H]4CCCO4)c3c2-c2ccccc2)cc1	1.84
13) Cc1cc(C)cc(-c2[nH]c3ccc(C(C)(C)C(=O)N4C5CCC4CC5)cc3c2CCN(C)CCCCc2ccncc2)c1	-0.05
14) O=C(NC[C@@H](O)CN1CCC(Oc2ccc(Cl)c(Cl)c2)CC1)c1cc(=O)[nH]c2ccccc12	1.20
15) CC(C)Oc1cc(OCc2ccccc2F)cc(C(=O)Nc2ccc(C(=O)O)cn2)c1	1.79
16) CN(CCOc1ccc(CC2SC(=O)NC2=O)cc1)c1ccccn1 (centres undefined)	1.45
17) COc1ccc(/C=C\c2cc(OC)c(OC)c(OC)c2)cc1O	2.16
18) CC(C)Oc1cc(O[C@H](C)Cc2ccccc2)cc(C(=O)Nc2ccc(C(=O)O)cn2)c1	0.93
19) O=C(NC1C2CC3CC(C2)CC1C3)[C@H]1CCCN1Cc1ccc(Cl)cc1 (some centres undefined)	1.33

---

Test: physchem
Details: pH 7.4 buffer
Measured endpoint: solubility thermodynamic (µM)

1) COc1cc2ncnc(Nc3cccc(Cl)c3F)c2cc1CN(C)C1CCNC1=O (stereo unspecified)	89.1
2) CC(C)(C)OC(=O)N1CCC[C@H]1C(=O)Nc1ccc(Br)cc1	23.4
3) CCn1c2ccccc2c2cc(NC(=O)N3CCOCC3)ccc21	2.9
4) NC(=O)c1sc(-c2ccccc2)cc1N	38.9
5) Nc1ncnc2c1nc(Sc1nc3cccc(Cl)c3s1)n2CCO	2
6) CNC(=O)c1ccccc1Nc1nc(Nc2ccc(N3CCOCC3)cc2OC)ncc1Cl	0.4
7) COc1ccc(Cl)c(Nc2ncnc3cc(OCCCN4CCOCC4)c(OC)cc23)c1	72.4
8) Nc1nccc(-c2c[nH]c3ccccc23)n1	575
9) COc1cc(N2CCN(CCO)CC2)ccc1Nc1ncc(Cl)c(-c2cnc3ccccn23)n1	66.1
10) CCn1c2nc(=O)n(C)c(=O)c-2cc2ccccc21	324
11) CNC(=O)[C@@H](NC(=O)[C@H](CC(C)C)[C@H](OCc1cc2ccccc2n(C)c1=O)C(=O)NO)C(C)(C)C	269

---

Experiment: in vitro
Details: human, plasma, PPB
Residues, ends and D or L forms follow the SMILES beside them.
Recorded fraction unbound at 5 h for the following compounds
Measured endpoint: fraction unbound at 5 h

1. O=c1cc(OCc2ccccc2)ccn1-c1ccc2c(cnn2CCN2CCCC2)c1	0.17
2. Cc1onc(-c2ccccc2)c1C(=O)N(C)c1ccc(Cl)cc1	0.0418
3. CCCCCCCC(=O)N[C@@H](C)C(=O)N[C@H](C(=O)N[C@@H](CCN)C(=O)N[C@H]1CCNC(=O)[C@H]([C@@H](C)O)NC(=O)[C@H](CCN)NC(=O)[C@H](CCN)NC(=O)[C@H](CC(C)C)NC(=O)[C@@H](Cc2ccccc2)NC(=O)[C@H](CCN)NC1=O)[C@@H](C)O (HELM PEPTIDE1{[CCCCCCCC(=O)[*:2]].A.T.[Dab].[Dab].[Dab].[dF].L.[Dab].[Dab].T}$PEPTIDE1,PEPTIDE1,5:R3-11:R2$$$V2.0)	0.107
4. Nc1ccc2nc(SCC(=O)NC3CCN(Cc4ccc(Cl)c(Cl)c4)CC3)sc2c1	0.262
5. COc1ccc2ncc(=O)n(CCN3CC[C@H](NCc4cc5c(cn4)OCCO5)[C@@H](OC)C3)c2c1	0.166
6. COc1cc2ncc(C(N)=O)c(Nc3ccccc3C)c2cc1OC	0.0081

---

Test: in vitro
Conditions: human, plasma, PPB
Residues, ends and D or L forms follow the SMILES beside them.
Recorded fraction unbound at 5 h for the following compounds
Measured endpoint: fraction unbound at 5 h

1. Cc1noc(C)c1-c1ccc(CNS(=O)(=O)c2c(C)noc2C)cc1	0.0752
2. COc1ccc(NC(=O)c2ccnc(N)n2)cc1	0.289
3. CC(C)N(CCCNC(=O)Nc1ccc(C(C)(C)C)cc1)C[C@H]1O[C@@H](n2cnc3c(N)ncnc32)[C@H](O)[C@@H]1O	0.285
4. CC(C)C(NC(=O)c1ccccc1)C(=O)c1ccc(F)cc1 (configuration not stated)	0.0499
5. COc1nc(Cl)c(Cl)nc1NS(=O)(=O)c1ccc(Cl)s1	0.0008
6. O=C(NCC12CC3CC(CC(C3)C1)C2)c1cc(OCCNCCCO)ncc1Cl	0.11
7. COc1c2occc2cc2ccc(=O)oc12	0.0768
8. CN[C@@H](C)C(=O)N[C@H](C(=O)N[C@H]1CCN(Cc2ccccc2)C1)C1CCCCC1	0.511
9. CC(=O)Nc1ccc(Nc2ncc3cc(-c4ccncc4)ccc3n2)cc1	0.006
10. C[C@H](Nc1ncc(Cl)c(Nc2cc(C3CC3)[nH]n2)n1)c1ccc(F)cn1	0.0358
11. Cc1nc(C(C)C)c(-c2ccc([C@H]3CC[C@H](CC(=O)O)CC3)cc2)nc1C(N)=O	0.0219
12. N#Cc1ccc(NC(=O)Nc2ccccc2Br)c2nn[nH]c12	0.0042
13. COc1cc(OC)c(S(=O)(=O)N2c3ccccc3CCC2C)cc1NC(=S)NCC(=O)O (configuration not stated)	0.309
14. O=C(NCc1ccccc1Cl)c1cccnc1Oc1ccccc1	0.134
15. COc1cccc(C(=O)NCCN2CCC(Oc3ccc(Cl)c(Cl)c3)CC2)c1	0.0008
16. CCCCCCCC(=O)N[C@@H](CCN)C(=O)N[C@H](C(=O)N[C@@H](CCN)C(=O)N[C@H]1CCNC(=O)[C@H]([C@@H](C)O)NC(=O)[C@H](C)NC(=O)[C@H](CCN)NC(=O)[C@H](CC(C)C)NC(=O)[C@@H](Cc2ccccc2)NC(=O)[C@H](CCN)NC1=O)[C@@H](C)O (HELM PEPTIDE1{[CCCCCCCC(=O)[*:2]].[Dab].T.[Dab].[Dab].[Dab].[dF].L.[Dab].A.T}$PEPTIDE1,PEPTIDE1,5:R3-11:R2$$$V2.0)	0.132
17. CC(C)Oc1cc(Nc2nc3c(cc2F)ncn3[C@@H](CO)c2ccc(F)cn2)n[nH]1	0.051

---

Assay: physchem
Settings: octan-1-ol/water, pH 7.4, LogD7.4
# binning rule on logD: low range (below 2), mid range (2 to below 3), high range (3 or more)

1) CC(C)Cn1c(=O)n(C)c(=O)c2c(SCCCO)n(Cc3cccc4ccccc34)cc21	high range
2) Cc1ncc(-c2nc(Nc3ccc(C(=O)NCCN(C)C)c(F)c3)ncc2F)n1C(C)C	mid range
3) Cc1ccc2c(n1)c(Sc1ccc(Cl)cc1)c(C)n2CC(=O)O	low range
4) Nc1cc(-c2ccccc2)nc2ccccc12	mid range
5) CN1CCN(c2cc3c(Nc4ccc(F)cc4F)c(C(N)=O)cnc3cc2F)CC1	mid range
6) Nc1scc2c(C(=O)NC3CC3)nn(-c3ccc(F)cc3)c(=O)c12	mid range
7) CNc1cccc(CCOc2ccc(C[C@H](NC(=O)c3ccccc3Cl)C(=O)O)cc2)n1	low range
8) Cn1sc(=O)c2cc(S(=O)(=O)NC3CC3)ccc21	low range
9) Cc1ccc2c(N)c(C#N)sc2n1	mid range
10) COc1ccc(OC)c(-c2c(F)ccc3c(N)c(C(=O)NC4CC4)nnc23)c1	high range
11) NS(=O)(=O)c1ccc(CCNc2ccc3nnc(-c4ccccc4)n3n2)cc1	mid range
